tgt: T1, human Claudin18.2 (CLDN18.2) (human, UniProt P56856 1-261)
T1 construct: the cell line is named under assay; also called human Claudine18.2; hClaudin18.2
protocol_description: FACS on CHOK1-18.2 cells, antibody at 50 µg/ml
parameter_measured: MAX MFI
Number, no unit, nothing else.

chAb10 (antibody, V domains shown) VH: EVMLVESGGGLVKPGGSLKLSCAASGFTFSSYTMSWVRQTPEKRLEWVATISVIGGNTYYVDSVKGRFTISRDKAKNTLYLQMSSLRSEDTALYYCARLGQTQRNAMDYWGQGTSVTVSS VL: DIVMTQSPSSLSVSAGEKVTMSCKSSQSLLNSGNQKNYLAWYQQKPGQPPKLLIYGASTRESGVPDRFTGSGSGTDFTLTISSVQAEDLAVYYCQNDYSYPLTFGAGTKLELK | 80400
chAb20 (antibody, V domains shown) VH: EVMLVESGGGLVKPGGSLKLSCVASGFTFSSYTMSWVRQTPEKRLEWVATIIGGYGNTYYSDSVKGRITISRDSAKNTLYLQMISLRSEDTALYYCTRLGQTQRNAMDYWGQGTSVTVSS VL: DILMTQSPSSLSVSAGEKVTMNCKSSQSLLNSGNQKNYLAWYQQKPGQPPKLLIYGASTRESGVPDRFTGSGSGTDFTLTISSVQAEDLAVYYCQNDYYYPFTFGAGTKLEL | 65700
chAb31 (antibody, V domains shown) VH: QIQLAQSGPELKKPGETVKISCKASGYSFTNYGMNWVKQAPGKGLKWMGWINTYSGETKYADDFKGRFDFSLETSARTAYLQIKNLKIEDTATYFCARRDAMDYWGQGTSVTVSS VL: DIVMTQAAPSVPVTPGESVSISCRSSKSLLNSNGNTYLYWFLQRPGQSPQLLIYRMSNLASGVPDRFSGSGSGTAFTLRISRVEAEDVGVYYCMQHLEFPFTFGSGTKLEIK | 59900
chAb08 (antibody, V domains shown) VH: QVQLQQPGAELVKPGASVKLSCKASGYTFTSYLLHWVKQRPGQGLEWIGMIHPNGGSTNYNEKFKTKATLTVDKSSSTAYMQLSSLTSEDSAVYYCAPVYFGNSFAYWGQGTLVTVSA VL: DIVMTQSPSSLTVTAGEKVTMSCKSSQSLLNSGNQKNYLTWYQQKPGQPPKLLIYWASTRESGVPDRFTGSGSGTDFTLTISSVQAEDLAVYYCQNDYYYPFTFGSGTKLEKK | 71900
chAb04 (antibody, V domains shown) VH: EVQLQQSGPELVKPGASVKMSCMASGYTFTDYNIHWVKRSHGSRLEWIGYISPISGGAGYNQKFMDKATLTVDKSSNTAYMELRSLTSEDSAVYYCTRGDYWGQGTTLTVSS VL: DIVMTQSPSSLAVTVGEKVTMSCKSSQSLLNSGNQKNYLTWYQQKPGQPPKLLIYWASTRKSGVPDRFTGSGSGTDFTLTISSVQAEDLGIYYCLNDYGFPLTFGAGSKLELK | 75300

Return reported MAX MFI; argument: chAb17 (antibody, V domains shown) VH: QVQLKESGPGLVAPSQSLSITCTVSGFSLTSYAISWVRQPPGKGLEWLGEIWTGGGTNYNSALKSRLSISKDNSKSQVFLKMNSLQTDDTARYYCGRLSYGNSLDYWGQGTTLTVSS VL: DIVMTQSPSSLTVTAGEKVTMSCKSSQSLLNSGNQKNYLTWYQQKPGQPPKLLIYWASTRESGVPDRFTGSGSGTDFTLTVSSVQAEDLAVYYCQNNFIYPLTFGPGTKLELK
83800

Return reported MAX MFI; argument: chAb29 (antibody, V domains shown) VH: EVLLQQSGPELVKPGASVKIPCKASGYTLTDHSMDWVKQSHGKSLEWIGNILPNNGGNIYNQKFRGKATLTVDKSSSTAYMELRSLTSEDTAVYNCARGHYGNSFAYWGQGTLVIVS VL: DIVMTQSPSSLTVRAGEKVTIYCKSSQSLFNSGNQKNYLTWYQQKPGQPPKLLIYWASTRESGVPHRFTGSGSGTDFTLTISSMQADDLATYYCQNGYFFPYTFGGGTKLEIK
63400
